system: MS2 coat protein; assay: apparent KD of MS2 coat protein; designed switch direction (-1 OFF switch, 1 ON switch): -1; higher = weaker reporter binding; conditions: Eterna round: R95; input ligand: microRNA oligo, concentration not stated
The threshold is inclusive: apparent KD of MS2 coat protein of exactly 30 nM counts as true; values below receive false.

residue_sequence="UUCCUCGUUGUGAGGAUAUCGUCCGUGUUUUGUUACGAGAAGGCACAUGAGGAUCACCCAUGUUAUUUGAUUUU [JR_BMOE4_Sub074] (puzzle: Brourd's mod of Exclusion 4)" discrete_label=true
residue_sequence="CGCGUAUGAGGAUAUGCAUAAAAGGGUGCACUGAGUCUGAGACAUGAGGAUCACCCAUGUAGAAGGCGUGCGCU [Beerteon] (puzzle: Exclusion 2)" discrete_label=false
residue_sequence="UCUCGACAUGAGGAUCACCCAUGUCAGGAUAUUGUGUUUGAGGUUUUUUACCUUUUGGCAAGAAGGGAUGUGUG [LRO-Excl1-21] (puzzle: Exclusion 1)" discrete_label=false
residue_sequence="CGUGACUCAGGAUAUCUAUAAUAUCACAUGAGGAUCACCCAUGUCCAGCGAAAGCUGGAGAGAGAAGGGAGUCACG [Fiskers Ex 5 - 36] (puzzle: Exclusion 5)" discrete_label=true

---

test system: MS2 coat protein; experiment: apparent KD of MS2 coat protein; designed switch direction (-1 OFF switch, 1 ON switch): -1; higher = weaker reporter binding; conditions: input ligand: FMN 200 uM
ENDPOINT: apparent KD of MS2 coat protein (nM)

residue_sequence="UUAUAUAGGUAGGAUAUCGAUUUUAAUUAAUAUCGAGAAGGGUCAACAUGAGGAUCACCCAUGUCAGCAUGUAU [LRO-Excl6-04-Rocketman] (Eterna round: R97, puzzle: Exclusion 6)" assay_system="MS2 coat protein" display_unit=nM observed_value=60
residue_sequence="GGAUCGAGUGUGAGGAUAUACCUAUGGAUACAUAGGUAGAAGGCACAUGAGGAUCACCCAUGUUCCAACGGUCC [Eli bmx4 4.11] (Eterna round: R97, puzzle: Brourd's mod of Exclusion 4)" assay_system="MS2 coat protein" display_unit=nM observed_value=817
residue_sequence="GCAGAAUGAGUUAGGAUAUGAUGAUUUUUCGGAUAUCAGAAGGAACUUGAGGAUCACCCAAGUUAAGAUAGGGU [JR_BMEx4_Sub066] (Eterna round: R97, puzzle: Brourd's mod of Exclusion 4)" assay_system="MS2 coat protein" display_unit=nM observed_value=258
residue_sequence="GUCACAUGGGUGUAGAAUCACAUGAGGAUCACCCAUGUGACUAACAAGCUUUUUGCUCGUCUUAUGUCUAUGUGAAA [Stov1/17-A1] (Eterna round: R97, puzzle: Sensor, turn-off variant 1)" assay_system="MS2 coat protein" display_unit=nM observed_value=47.4

---

Reported values of apparent KD of MS2 coat protein for individual entries
system: MS2 coat protein; experiment: apparent KD of MS2 coat protein, switch ON state; designed switch direction (-1 OFF switch, 1 ON switch): -1; higher = weaker reporter binding; details: FMN input: 0 or 200 uM; Eterna round: R93 (includes R88 designs)
ENDPOINT: apparent KD of MS2 coat protein (nM)

residue_sequence="AACAGAACAGGAUAUACAUGAGGAUCACCCAUGUCACAACAAAGCAGCGCAACACAAAGUAGAAGGGUUAUGGA [Ruby 14]" observed_value=31.8
residue_sequence="AAAAAGUGAGGAUAUGCGCUGUCAUGUAGACACGAGCAGUCGUAGAAGGCACAUGAGGAUCACCCAUGUUUAAA [EX4 Malc#24]" observed_value=31.9
residue_sequence="AACAAACAUGAGGAUCACCCAUGUCAGGAUAUGCAUAAAUAAAUAAAUAAAUAAAUAAGCAGAAGGGACACAAC [Amethyst 90]" observed_value=45.1
residue_sequence="AAAGGGCGAGGAUAUACAUGAGGAUCACCCAUGUAAAAAACAUAAUAAAAGAACUUAUGUAGAAGGCGUCCAAA [Meechl Ex3 2 R2 v2]" observed_value=52.8
residue_sequence="AAAAAGUCAGGAUAUCGUAGAAAAAUAUAAAUAAGAAAGUACGAGAAGGGACAUGAGGAUCACCCAUGUAAAAA [Ex 4 #1]" observed_value=50
residue_sequence="AAAAAGGGAGGAUAUACAUGAGUAGAUCGUGUAAAAAAAAUACAUGAGGAUCACCCAUGUAGAAGGCCCAAAAA [Ecxl-III]" observed_value=96.8
residue_sequence="AAGAAGAGAGGAUAUACAAAAUAAAAGAAAAGAAAGAAAGAACAUGAGGAUCACCCAUGUAGAAGGCUCAAGAA [Hotepibre Qemau Siharnedjheritef]" observed_value=25.6

Reference source: the supplement of paper PMC9170038
